- Test system: HSkMC
- Test name: cytotoxicity call (relative viability < 0.9)
- Test settings: 10 µM
About 1,500 (3.8%) of roughly 39,000 compounds were called active. The sample as a whole holds a higher share of actives than the screen did.
Classes used: yes (1) for active, no (0) for inactive

1. C[C@H](CO)N1C[C@H](C)[C@H](CN(C)CC2CCCCC2)OCCCC[C@H](C)Oc2ccc(NC(=O)Nc3cccc4ccccc34)cc2C1=O = yes (1)
2. C[C@@H]1CN([C@@H](C)CO)C(=O)c2cc(NC(=O)Nc3cccc4ccccc34)ccc2O[C@@H](C)CCCCO[C@H]1CN(C)CC1CCCCC1 = yes (1)
3. C[C@@H]1CN([C@@H](C)CO)C(=O)c2cc(NC(=O)Nc3cccc4ccccc34)ccc2O[C@@H](C)CCCCO[C@@H]1CN(C)CC1CCCCC1 = yes (1)
4. C[C@@H]1CN([C@@H](C)CO)S(=O)(=O)c2ccc(-c3cncnc3)cc2O[C@H]1CN(C)C(=O)Cc1cccnc1 = no (0)

====

- Test system: HSkMC
- Test name: cytotoxicity call (relative viability < 0.9)
- Test settings: 10 µM
Among all 39,000 compounds or so, about 1,500 (3.8%) were called active. Only a selection was taken, and actives are over-represented in it overall.
Classes used: 1 = active, -1 = inactive

1) COc1ccc(CN(C)C[C@H]2OCCCC[C@H](C)Oc3ccc(NS(=O)(=O)c4ccc(OC)cc4)cc3C(=O)N([C@H](C)CO)C[C@H]2C)cc1 = -1
2) COc1ccc(S(=O)(=O)Nc2ccc3c(c2)C(=O)N([C@@H](C)CO)C[C@@H](C)[C@@H](CN(C)Cc2ccc(Cl)c(Cl)c2)OCCCC[C@@H](C)O3)cc1 = 1
3) COc1ccc(S(=O)(=O)Nc2ccc3c(c2)C(=O)N([C@H](C)CO)C[C@@H](C)[C@H](CN(C)Cc2ccc(Cl)c(Cl)c2)OCCCC[C@@H](C)O3)cc1 = -1
4) COc1ccc(CN(C)C[C@H]2OCCCC[C@H](C)Oc3ccc(NS(=O)(=O)c4ccc(OC)cc4)cc3C(=O)N([C@@H](C)CO)C[C@@H]2C)cc1 = -1
5) C[C@H](CO)N1C[C@H](C)[C@H](CN(C)S(=O)(=O)c2cn(C)cn2)Oc2ccc(NC(=O)CCCN(C)C)cc2C1=O = -1
6) COc1ccc(CN(C)C[C@H]2OCCCC[C@@H](C)Oc3ccc(NS(=O)(=O)c4ccc(OC)cc4)cc3C(=O)N([C@H](C)CO)C[C@H]2C)cc1 = -1

====

- Tested on: HSkMC (human skeletal muscle cells)
- Test name: cytotoxicity call (relative viability < 0.9)
- Test settings: 10 µM
Hit rate of the full screen: of about 39,000 compounds, about 1,500 (3.8%) were called active. What follows is part of a selection rich in actives, with near analogues and random picks from the rest.
Classes used: active, inactive

1) C[C@@H]1CCCCO[C@@H](CN(C)C(=O)Nc2cccc3ccccc23)[C@@H](C)CN([C@H](C)CO)C(=O)c2cc(NC(=O)C3CCCCC3)ccc2O1 = active
2) COCCNC(=O)C[C@@H]1CC[C@@H](NS(=O)(=O)c2ccc(C)cc2)[C@H](CO)O1 = inactive
3) C[C@@H]1CCCCO[C@H](CN(C)C(=O)Nc2cccc3ccccc23)[C@H](C)CN([C@H](C)CO)C(=O)c2cc(NC(=O)C3CCCCC3)ccc2O1 = inactive
4) C[C@@H]1CCCCO[C@@H](CN(C)Cc2ccc3c(c2)OCO3)[C@@H](C)CN([C@@H](C)CO)C(=O)c2cc(NC(=O)Cc3ccccc3)ccc2O1 = inactive
5) O=C(O)c1cc2sccc2s1 = inactive
6) C[C@@H]1CCCCO[C@H](CN(C)C(=O)c2ccccc2)[C@@H](C)CN([C@@H](C)CO)C(=O)c2cc(NC(=O)c3ccccc3)ccc2O1 = inactive
7) CCC(=O)Nc1ccc2c(c1)C(=O)N(C)C[C@H](OC)[C@@H](C)CN(C(=O)CN1CCOCC1)[C@H](C)CO2 = inactive
8) O=C(C[C@H]1CC[C@@H]2[C@H](COC[C@H](O)CN2C(=O)Nc2ccc(Cl)c(Cl)c2)O1)NCc1ccc(Cl)c(Cl)c1 = inactive
9) C[C@H](CO)N1C[C@H](C)[C@@H](CN(C)C(=O)Nc2ccccc2)Oc2ccc(NC(=O)CCCCCC(=O)Nc3ccccc3N)cc2C1=O = inactive
10) C[C@@H]1CN([C@H](C)CO)C(=O)c2cc(NC(=O)C3CCCCC3)ccc2O[C@@H](C)CCCCO[C@@H]1CN(C)C(=O)Nc1cccc2ccccc12 = active
11) C[C@@H]1CN([C@@H](C)CO)C(=O)c2cc(NS(C)(=O)=O)ccc2O[C@@H]1CN(C)S(=O)(=O)c1ccccc1 = inactive
12) C[C@H]1CN([C@@H](C)CO)C(=O)c2cc(NC(=O)Cc3ccccc3)ccc2O[C@@H]1CN(C)C(=O)Nc1cccc2ccccc12 = inactive
13) C[C@H](CO)N1C[C@H](C)[C@H](CN(C)Cc2ccccc2)Oc2ccc(NS(=O)(=O)c3cn(C)cn3)cc2CC1=O = inactive
14) C[C@@H]1CN([C@@H](C)CO)C(=O)c2cc(NC(=O)C3CCCCC3)ccc2O[C@@H](C)CCCCO[C@@H]1CN(C)C(=O)Nc1cccc2ccccc12 = inactive
